System: Mel-Ab cell line
Experiment: Melanin production inhibition (Dooley's method)
Type: cell-based, C57BL/6
Conditions: Mel-Ab cells, after 5 days, absorbance at 400 nm
measurementKind: IC50 (ppm), concentration required to reduce melanin production in melanocytes by half

compound: CC(C)=CCC[C@](C)(O[C@@H]1O[C@H](CO[C@@H]2OC[C@H](O)[C@H](O)[C@H]2O)[C@@H](O)[C@H](O)[C@H]1O)[C@H]1CC[C@]2(C)[C@@H]1[C@H](O)C[C@@H]1[C@@]3(C)CC[C@H](O[C@@H]4O[C@H](CO)[C@@H](O)[C@H](O)[C@H]4O[C@@H]4O[C@H](CO)[C@@H](O)[C@H](O)[C@H]4O)C(C)(C)[C@@H]3CC[C@]12C [GS#06, ginsenoside Rb2]
measurementTarget: Mel-Ab cell line
unitSymbol: ppm
value: 54
//
compound: O=c1cc(CO)occ1O
measurementTarget: Mel-Ab cell line
unitSymbol: ppm
value: 39

###

System: Mel-Ab cell line
Assay: Melanin production inhibition (Dooley's method)
Format: cell-based, C57BL/6
Details: Mel-Ab cells, after 5 days, absorbance at 400 nm
measurementKind: IC50 (ppm), concentration required to reduce melanin production in melanocytes by half

compound: CC(C)=CCC[C@](C)(O)[C@H]1CC[C@]2(C)[C@@H]1[C@H](O)C[C@@H]1[C@@]3(C)CC[C@H](O)C(C)(C)[C@@H]3[C@@H](O[C@@H]3O[C@H](CO)[C@@H](O)[C@H](O)[C@H]3O[C@@H]3O[C@@H](C)[C@H](O)[C@@H](O)[C@H]3O)C[C@]12C [GS#02, ginsenoside Rg2]
measurementTarget: Mel-Ab cell line
value: 35 ppm
--
compound: CC1(C)C(=O)CC[C@@]2(C)C1[C@@H](O[C@H]1OC(CO)[C@H](O)C(O)C1O[C@H]1OC(CO)[C@H](O)C(O)C1O)C[C@]1(C)C2C[C@@H](O)C2C([C@]3(C)CC[C@H](C(C)(C)O)O3)CC[C@]21C (stereo partly drawn)
measurementTarget: Mel-Ab cell line
value: 22 ppm
--
compound: CC(C)=CCC[C@](C)(O[C@@H]1O[C@H](CO[C@@H]2O[C@H](CO)[C@@H](O)[C@H](O)[C@H]2O)[C@@H](O)[C@H](O)[C@H]1O)[C@H]1CC[C@]2(C)[C@@H]1[C@H](O)C[C@@H]1[C@@]3(C)CC[C@H](O[C@@H]4O[C@H](CO)[C@@H](O)[C@H](O)[C@H]4O[C@@H]4O[C@H](CO)[C@@H](O)[C@H](O)[C@H]4O)C(C)(C)[C@@H]3CC[C@]12C [GS#05, ginsenoside Rb1]
measurementTarget: Mel-Ab cell line
value: 57 ppm
--
compound: CC(C)=CCC[C@](C)(O[C@@H]1O[C@H](CO)[C@@H](O)[C@H](O)[C@H]1O)[C@H]1CC[C@]2(C)[C@@H]1[C@H](O)C[C@@H]1[C@@]3(C)CC[C@H](O)C(C)(C)[C@@H]3[C@@H](O[C@@H]3O[C@H](CO)[C@@H](O)[C@H](O)[C@H]3O[C@@H]3O[C@@H](C)[C@H](O)[C@@H](O)[C@H]3O)C[C@]12C [GS#03, ginsenoside Re]
measurementTarget: Mel-Ab cell line
value: 39 ppm
--
compound: CC(C)=CCC[C@](C)(O[C@@H]1O[C@H](CO)[C@@H](O)[C@H](O)[C@H]1O)[C@H]1CC[C@]2(C)[C@@H]1[C@H](O)C[C@@H]1[C@@]3(C)CC[C@H](O[C@@H]4O[C@H](CO)[C@@H](O)[C@H](O)[C@H]4O[C@@H]4O[C@H](CO)[C@@H](O)[C@H](O)[C@H]4O)C(C)(C)[C@@H]3CC[C@]12C [GS#04, ginsenoside Rd]
measurementTarget: Mel-Ab cell line
value: 38 ppm
--
compound: CC(C)=CCC[C@](C)(O[C@@H]1O[C@H](CO)[C@@H](O)[C@H](O)[C@H]1O)[C@H]1CC[C@]2(C)[C@@H]1[C@H](O)C[C@@H]1[C@@]3(C)CC[C@H](O)C(C)(C)[C@@H]3[C@@H](O[C@@H]3O[C@H](CO)[C@@H](O)[C@H](O)[C@H]3O)C[C@]12C [GS#01, ginsenoside Rg1]
measurementTarget: Mel-Ab cell line
value: 37 ppm
